meta.source: patent US10889553B2

# Tested on: HCT-116 (colon)
# TEST_NAME: Cancer cell proliferation assay (acid phosphatase)
# Format: cell-based
# CONDITION_DESCRIPTION: Homo sapiens, HCT-116; Table 6A; 72 hrs; read-out: HCT-116 IC50
MEASURED_ENDPOINT: pIC50
// field semantics: pIC50 = negative decimal log of concentration (mol/L)

Query: Please look up its pIC50: Cc1ccccc1C(=O)Nc1nc(NC(=O)c2ccccc2C)n(-c2ccc(OC(F)(F)F)cc2)n1 [Compound 42]
Reply: 7.15

---

# TEST_NAME: Oral bioavailability (PO) and pharmacokinetics assay
# Type: in vivo, mice
# CONDITION_DESCRIPTION: male, Sprague-Dawley, plasma; mouse, PO (10 mg/kg)
MEASURED_ENDPOINT: Tmax (h)
Numeric only. Scale: h

Query: # Tmax lookup, item Cc1ccccc1C(=O)Nc1nc(NC(=O)c2ccccc2C)n(-c2ccc(OC(F)(F)F)cc2)n1
Reply: 3.67

---

# System: HCT-116 (colon)
# TEST_NAME: Cancer cell proliferation assay (acid phosphatase)
# Format: cell-based
# CONDITION_DESCRIPTION: Table 6A; 72 hrs; read-out: HCT-116 IC50
MEASURED_ENDPOINT: pIC50
// pIC50 here means minus log10 of the molar concentration (mol/L)

Query: # input compound: Cc1ccccc1C(=O)Nc1nc(-c2cccc(F)n2)nn1-c1cccc(F)c1 [Compound 132] ; wanted: its pIC50
Reply: 5.66

---

# TEST_NAME: Oral bioavailability (PO) and pharmacokinetics assay
# Assay type: in vivo, mice
# CONDITION_DESCRIPTION: male, Sprague-Dawley, plasma; mouse, IV bolus (3 mg/kg); extrapolated value
MEASURED_ENDPOINT: C0 (ng/mL)
The reply should contain only the number, in ng/mL.

Query: Bench note: what C0 did Cc1ccccc1C(=O)Nc1nc(NC(=O)c2ccccc2C)n(-c2ccc(OC(F)(F)F)cc2)n1 show?
Reply: 40500

---

compounds and their reported log10(EC50)
# SYSTEM_TESTED: Parkin ligase (Homo sapiens)
# TEST_NAME: Activity-Based Probe Assay using Ubiquitin vinyl sulfone probe (TR-FRET)
# Assay type: biochemical
# CONDITION_DESCRIPTION: heat activated Parkin, HA-Ub-VS probe, activation EC50; read-out: Probe Assay EC50 (μM) [Example 2]
# log10 transformed; quantity=EC50; unit=µM

Observe how each entry below is paired with its result.
O=C(Nc1nc(NC(=O)c2ccncc2)n(-c2ccc(OC(F)(F)F)cc2)n1)c1ccncc1 : 0.70
Cc1ccccc1C(=O)Nc1nc(NC(=O)c2ccno2)n(-c2ccc(C(F)(F)F)cc2)n1 : 0.60

Query: What value of log10(EC50) on Parkin ligase (Homo sapiens) does COc1ccc(C(=O)Nc2nc(NC(=O)c3ccc(OC)cc3)n(-c3ccccc3)n2)cc1 have?
Reply: 0.60

Query: And the next one, Cc1ccccc1C(=O)Nc1nc(-c2cccc(F)n2)nn1-c1ccc(OC(F)(F)F)cc1 ?
Reply: 0.48

Query: Now the compound Cc1ccccc1C(=O)Nc1nc(NC(=O)c2ccccc2C)n(-c2cccc(F)c2)n1
Reply: 0.60

Query: Same thing, different compound: Cc1ccccc1C(=O)Nc1nc(NCc2cccc(Cl)c2)nn1-c1ccc(OC(F)(F)F)cc1
Reply: 0.00

Query: Also check O=C(Nc1nc(NC(=O)c2ccncc2)n(-c2ccccc2)n1)c1ccncc1
Reply: 0.48

Query: Now this one: Cc1ccnc(-c2nc(NC(=O)c3ccccc3C)n(-c3ccccc3)n2)c1
Reply: 0.48

Query: Now try Cc1ccccc1C(=O)Nc1nc(NC(=O)c2cccnc2)nn1-c1ccc(Cl)cc1 .
Reply: 0.60

Query: And then Cc1ccccc1C(=O)Nc1nc(NCc2ccccc2)nn1-c1ccc(C(F)(F)F)cc1 , what is it?
Reply: 0.30

Query: What do you get for Cc1ccccc1C(=O)Nc1nc(NC(=O)c2ncccn2)n(-c2ccccc2)n1 ?
Reply: 1.34

Query: Also check Cc1ccccc1C(=O)Nc1nc(N[C@@H](C)c2ccccc2)nn1-c1ccccc1
Reply: 0.48

Query: Now give it for O=C(Nc1nc(NC(=O)c2ccncc2)n(-c2ccc(C(F)(F)F)cc2)n1)c1ccncc1 too.
Reply: 0.48

---

Documented half-life at 1 μM across a set of compounds
# TEST_NAME: Microsomal stability assay, rat liver microsomes
# Assay type: in vitro ADME
# CONDITION_DESCRIPTION: pH 7.4; rat liver microsomes 1.0 mg/mL, 1 μM compound, NADPH; read-out: RLM t1/2
The answer is to be given in min; state only the numeric part.

Cc1ccccc1C(=O)Nc1nc(NC(=O)c2ccccc2C)n(-c2ccc(OC(F)(F)F)cc2)n1 [Compound 42] : 231

Query: Which half-life at 1 μM is listed for Cc1ccc(-n2nc(NC(=O)c3ccccc3C)nc2NC(=O)c2ccccc2C)cc1 [Compound 31] ?
Reply: 14

Query: Next entry: Cc1ccnc(-c2nc(NC(=O)c3ccccc3C)n(-c3ccccc3)n2)c1 [Compound 124]
Reply: 43

Query: One more compound: COc1ccc(C(=O)Nc2nc(NC(=O)c3ccc(OC)cc3)n(-c3ccccc3)n2)cc1 [Compound 37]
Reply: 21

Query: Next compound: Cc1ccccc1C(=O)Nc1nc(-c2ccccc2O)nn1-c1ccc(Cl)cc1 [Compound 155]
Reply: 17.4

Query: And what about the compound Cc1ccccc1C(=O)Nc1nc(NC(=O)c2ccccn2)nn1-c1ccccc1 [Compound 16] ?
Reply: 141

Query: Do the same for COc1cccc(C(=O)Nc2nc(NC(=O)c3cccc(OC)c3)n(-c3ccccc3)n2)c1 [Compound 27] please
Reply: 19

Query: Another compound: Cc1ccccc1C(=O)Nc1nc(NC(=O)c2ccno2)n(-c2ccccc2)n1 [Compound 7]
Reply: 239

---

# System: A549 (lung)
# TEST_NAME: Cancer cell proliferation assay (acid phosphatase)
# Format: cell-based
# CONDITION_DESCRIPTION: Homo sapiens, A549, 72 h, Table 6A; 72 hrs; read-out: A549 IC50
MEASURED_ENDPOINT: IC50 (nM)
Record the value in nM, omitting the unit from your answer.

Consider the following illustrative entries.
Cc1ccccc1C(=O)Nc1nc(NC(=O)c2ccccc2C)n(-c2ccc(C#N)cc2)n1 [Compound 35] : 2400
Cc1cccc(C(=O)Nc2nc(NC(=O)c3cccc(C)c3)n(-c3ccccc3)n2)c1 [Compound F3] : 2300
Cc1ccccc1C(=O)Nc1nc(NC(=O)c2ccccc2C)n(-c2cccc(Cl)c2)n1 [Compound 36] : 220
O=C(Nc1nc(NC(=O)c2ccccn2)n(-c2ccccc2)n1)c1ccccn1 [Compound 41] : 2500
Cc1ccccc1C(=O)Nc1nc(-c2cccc(F)n2)nn1-c1ccc(Cl)cc1 [Compound 134] : 2600
Cc1ccc(C(=O)Nc2nc(NC(=O)c3ccc(C)cc3)n(-c3ccccc3)n2)cc1 [Compound 21] : 2500

Would you kindly look at the next entry?
Query: What value of measured IC50 is listed for COc1ccc(C(=O)Nc2nc(NC(=O)c3ccc(OC)cc3)n(-c3ccccc3)n2)cc1 [Compound 37] ?
Reply: 2300

---

# SYSTEM_TESTED: Parkin ligase (Homo sapiens)
# Sequence (O60260 1-465): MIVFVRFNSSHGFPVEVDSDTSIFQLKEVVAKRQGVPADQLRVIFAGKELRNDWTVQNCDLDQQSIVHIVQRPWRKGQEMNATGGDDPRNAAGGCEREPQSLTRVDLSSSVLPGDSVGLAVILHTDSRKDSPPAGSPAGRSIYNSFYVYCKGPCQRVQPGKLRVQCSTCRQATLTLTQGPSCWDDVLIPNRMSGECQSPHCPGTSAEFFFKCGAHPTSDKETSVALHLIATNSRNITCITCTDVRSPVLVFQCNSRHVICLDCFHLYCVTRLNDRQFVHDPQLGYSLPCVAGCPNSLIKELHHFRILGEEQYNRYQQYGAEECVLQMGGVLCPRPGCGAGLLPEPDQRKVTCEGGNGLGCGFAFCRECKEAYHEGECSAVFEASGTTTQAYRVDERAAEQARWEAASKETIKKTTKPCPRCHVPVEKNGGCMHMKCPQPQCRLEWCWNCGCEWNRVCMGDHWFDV
# TEST_NAME: Activity-Based Probe Assay using Ubiquitin vinyl sulfone probe (TR-FRET)
# Format: biochemical
# CONDITION_DESCRIPTION: heat activated Parkin, HA-Ub-VS probe, activation EC50; read-out: Probe Assay EC50 (μM) [Example 2]
MEASURED_ENDPOINT: EC50 (µM)
All answers are understood in µM, so give the number only.

Take a look at these entries with their results.
COc1ccccc1CNc1nc(NC(=O)c2ccccc2C)n(-c2ccc(OC(F)(F)F)cc2)n1 : 2
Cc1ccccc1C(=O)Nc1nc(NC(=O)c2cccc(N=[N+]=[N-])c2)nn1-c1ccc(OC(F)(F)F)cc1 : 6
Cc1ccccc1C(=O)Nc1nc(-c2cccc(F)n2)nn1-c1ccc(Cl)cc1 : 4

Consider the record given below.
Query: What value of EC50 has been recorded for this entry: Cc1ccccc1C(=O)Nc1nc(NC(=O)c2ccccc2C)n(-c2ccc(F)c(F)c2)n1
Reply: 3
